molecular target: Fatty acid synthase (Homo sapiens); assay: inhibition of human FAS-TE enzyme activity – biochemical, fluorescence intensity, uHTS, primary screen (AID 602261); conditions: recombinant FAS-TE, OMFH fluorogenic substrate, fluorescence endpoint; at 15 µM; stronger effect = higher value;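 note: 0% = DMSO with enzyme and 100% = substrate without enzyme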
The whole screen tested about 360,000 compounds, of which about 2,400 (0.67%) were called active. The full list was thinned out, with actives kept by preference.
Each entry below carries its recorded inhibition.
Number in %, nothing else.

Some molecules with known inhibition results, for comparison:
>>> value_reported("CCCCCCCCCCCCn1ccc(=N)cc1")
-0.8
>>> value_reported("COc1ccc2c(c1O)-c1cccc3c1[C@@H](C2)N(C)CC3")
-2.4
>>> value_reported("O=C1NCN(c2ccccc2)C12CCN(C(c1cccs1)c1nnnn1C1CCCCC1)CC2 (configuration not stated)")
14.5
>>> value_reported("CCOc1ccc(CN(CCCl)CCCl)cc1C(=O)OC")
-5.1
>>> value_reported("CCOC(=O)C(O)(c1ccc(N=Cc2ccccc2O)c(C)c1)C(F)(F)F (configuration not stated)")
-4.3
>>> value_reported("c1cncc(CNCCc2c[nH]c3ccccc23)c1")
5.2

Q: Provide one value: measured inhibition of CCOC(=O)[C@]12Cc3cc(OC)ccc3[C@H]1N(C(C)C)C(=O)c1ccccc12
Ans: 36.7

Q: Provide one value: measured inhibition of O=C1C2(Cl)C3(Cl)C4(Cl)C(Cl)(Cl)C5(Cl)C3(Cl)C1(Cl)C5(Cl)C24Cl (configuration not stated)
Ans: 72.1

Q: Provide one value: measured inhibition of Cc1ccc(-c2cc(C(=O)N3CCC4(CC3)OCCO4)no2)cc1
Ans: 1.5

Q: Provide one value: measured inhibition of O=C(NC1CCCCC1)N1Cc2cc(N3CCCCC3)ccc2-n2nncc2C1
Ans: -2.8

Q: Provide one value: measured inhibition of CN(C)CC1CCCCC1OC(=O)c1ccc(Cl)c(Cl)c1 (configuration not stated)
Ans: -3.1

Q: Provide one value: measured inhibition of CC(=O)c1ccc(OC(NC(=O)Cc2ccccc2)C(Cl)(Cl)Cl)cc1 (configuration not stated)
Ans: 11.2
